Please provide measured plant injury at 250 g/ha for the entries that follow.
- Tested on: corn (Zea mays)
- TEST_PROTOCOL: Test G Pre-Emergence Protocol
- Type: in vivo
- CONDITION_SET: Zea mays, pre-emergence, 312 h, 250 g ai/ha, evaluated after 13 days, read-out: Corn damage rating (100=total damage to plant; 0=no damage to plant)
Please state the figure in %; there is no need to write the unit.

Task: I am curious: what plant injury at 250 g/ha value has been reported for CN1C[C@@H](c2ccc(C(F)(F)F)cc2)[C@H](C(=O)Nc2cc(C(C)(C)C)[nH]n2)C1=O (racemic) [Compound 1545] ?
Result: 0

Task: Next up: CN1C[C@H](c2ccc(C(F)(F)F)cc2)[C@@H](C(=O)NC2=NOC(C)(C)C2)C1=O (racemic) [Compound 1427]
Result: 0

Task: Next up: CCc1cc([C@@H]2CN(C)C(=O)[C@H]2C(=O)Nc2cccc(F)c2C)ccc1Cl (racemic) [Compound 1804]
Result: 60

Task: Next up: CN1C[C@@H](c2ccc(C(F)(F)F)cc2)[C@H](C(=O)Nc2ccc(Cl)nc2)C1=O (racemic) [Compound 1525]
Result: 0

Task: Next up: Cc1csc(NC(=O)[C@@H]2C(=O)N(C)C[C@H]2c2ccc(C(F)(F)F)cc2)c1C#N (racemic) [Compound 1576]
Result: 20

Task: Next up: CN1C[C@@H](c2ccc(C(F)(F)F)cc2)[C@H](C(=O)Nc2c[nH]nc2C(F)(F)F)C1=O (racemic) [Compound 1535]
Result: 0

Task: Next up: CN1C[C@@H](c2ccc(C(F)(F)F)cc2)[C@H](C(=O)Nc2cc(O)nc(C(F)(F)F)n2)C1=O (racemic) [Compound 1614]
Result: 0

Task: Next up: CN1C[C@@H](c2cncc(Cl)c2)[C@H](C(=O)Nc2cccc(F)c2F)C1=O (racemic) [Compound 1461]
Result: 0

Task: Next up: CN1C[C@@H](c2ccc(C(F)(F)F)cc2)[C@H](C(=O)Nc2cc(Cl)nc(Cl)c2)C1=O (racemic) [Compound 1519]
Result: 0
